System: 772245-204-R-J1-PDC complex spheroid growth
Experiment: Anticancer human tumor 772245-204-R-J1-PDC patient-derived rhabdomyosarcoma cell line growth inhibition [Asc]
Details: curve of first compound; second compound 3 µM

# COMPOUND, IC50
records = [
    ("NC1CCC(NC2CC2c2ccccc2)CC1 (centres undefined) + CCN1C(C(=O)NC23CCC(C(=O)O)(CC2)CC3)C(c2cccc(Cl)c2F)C2(C(=O)Nc3cc(Cl)ccc32)C12CCCCC2", "> 100 nM"),
    ("C#Cc1c(F)ccc2cc(O)cc(-c3ncc4c(N5CC6CCC(C5)N6)nc(OCC56CCCN5CC(F)C6)nc4c3F)c12 (centres undefined) + CCN1C(C(=O)NC23CCC(C(=O)O)(CC2)CC3)C(c2cccc(Cl)c2F)C2(C(=O)Nc3cc(Cl)ccc32)C12CCCCC2", "> 10000 nM"),
    ("Cn1ncnc1[C@H]1c2n[nH]c(=O)c3cc(F)cc(c23)N[C@@H]1c1ccc(F)cc1 + CCN1C(C(=O)NC23CCC(C(=O)O)(CC2)CC3)C(c2cccc(Cl)c2F)C2(C(=O)Nc3cc(Cl)ccc32)C12CCCCC2", "> 100 nM"),
    ("O=C(c1ccc(F)c(F)c1Nc1ccc(I)cc1F)N1CC(O)([C@@H]2CCCCN2)C1 + CCN1C(C(=O)NC23CCC(C(=O)O)(CC2)CC3)C(c2cccc(Cl)c2F)C2(C(=O)Nc3cc(Cl)ccc32)C12CCCCC2", "> 1000 nM"),
]

* * *

Test system: 772245-204-R-J1-PDC complex spheroid growth
Assay: Anticancer human tumor 772245-204-R-J1-PDC cell line growth inhibition [Asc];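 further: compound exposure lasted seven days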;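 on viability, T/C: 100% = DMSO vehicle control viability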
Details: second compound 0.0949 µM; first compound 0.316 µM; stronger effect = lower value

# COMPOUND, viability, T/C
data = [
    ("C=C(F)C(=O)N1CCN(c2nc(OCC3CCCN3C)nc3c2CCN(c2cccc4cccc(Cl)c24)C3)CC1CC#N (centres undefined) + CCN1C(C(=O)NC23CCC(C(=O)O)(CC2)CC3)C(c2cccc(Cl)c2F)C2(C(=O)Nc3cc(Cl)ccc32)C12CCCCC2", "85.3%"),
    ("C=CC(=O)N1CCN(c2nc(=O)n(-c3c(C)ccnc3C(C)C)c3nc(-c4c(O)cccc4F)c(F)cc23)C(C)C1 (centres undefined) + CCN1C(C(=O)NC23CCC(C(=O)O)(CC2)CC3)C(c2cccc(Cl)c2F)C2(C(=O)Nc3cc(Cl)ccc32)C12CCCCC2", "103%"),
    ("CCN1CCN(Cc2ccc(Nc3ncc(F)c(-c4cc(F)c5nc(C)n(C(C)C)c5c4)n3)nc2)CC1 + CCN1C(C(=O)NC23CCC(C(=O)O)(CC2)CC3)C(c2cccc(Cl)c2F)C2(C(=O)Nc3cc(Cl)ccc32)C12CCCCC2", "114%"),
    ("COc1c(OCCCN2CCOCC2)ccc2c3n(c(=NC(=O)c4cnc(N)nc4)nc12)CCN3 + CCN1C(C(=O)NC23CCC(C(=O)O)(CC2)CC3)C(c2cccc(Cl)c2F)C2(C(=O)Nc3cc(Cl)ccc32)C12CCCCC2", "35.6%"),
]
